The values you see were collected from patent US20240368163A1.

Quick reference for IC50 among some molecules
tested on: HTT; assay: HiBiT protein abundance assay, HTT; assay type: cell-based, human; details: Table 13A, modified K562 cells, 24 hours

Answered cases to consult:
- Molecule: "CN(c1ccc(-c2cc(F)c(-c3cnn(C)c3)c3cn[nH]c23)nn1)C1CC(C)(C)NC(C)(C)C1"
  Target Or System: "HTT"
  IC50: "100 to 1000 nM"
- Molecule: "CN(c1ccc(-c2ccc(-c3cn[nH]c3)c3ncsc23)nn1)[C@H]1C[C@H]2COC[C@@H](C1)N2"
  Target Or System: "HTT"
  IC50: "< 100 nM"
- Molecule: "CC(C)(C)NC1CCN(c2ccc(-c3ccc(-c4cn[nH]c4)c4ncsc34)nn2)C1 (stereo not shown)"
  Target Or System: "HTT"
  IC50: "100 to 1000 nM"

query: Value wanted: IC50 (HTT) of entry c1cnn(-c2ccc(-c3cnc(N4CCC(NC5CC5)C4)nn3)c3cn[nH]c23)c1 (stereo not shown)
result: 1000 to 10000 nM

----------
Quick reference for Papp at 2 h, 1 μM among some compounds
assay: Transwell assay for membrane efflux and permeability; type: in vitro ADME, Canine; settings: dog; MDCK-BCRP or MDCKII-MDR1 transwell, test compound 1 μM, 2 hours at 37° C.

- Compound: "COc1nc(-c2ccc(N(C)C3CC(C)(C)NC(C)(C)C3)nn2)ccc1-c1cnn(C)c1"
  Papp at 2 h, 1 μM: "2 to 6 ×10⁻⁶ cm/s"
- Compound: "CC1(C)CC(Nc2ccc(-c3ccc(-c4cn[nH]c4)c4ncsc34)nn2)CC(C)(C)N1"
  Papp at 2 h, 1 μM: "< 2 ×10⁻⁶ cm/s"
- Compound: "CCN(c1ccc(-c2ccc(-c3cn[nH]c3)c3ncsc23)nn1)[C@@H]1C[C@H]2CCC[C@@H](C1)N2"
  Papp at 2 h, 1 μM: "< 2 ×10⁻⁶ cm/s"

query: Reported Papp at 2 h, 1 μM, compound c1nc2c(-c3cn[nH]c3)ccc(-c3ccc(N4CCC(NC5CC5)C4)nn3)c2s1 (stereo not shown) : ____
result: 2 to 6 ×10⁻⁶ cm/s

----------
system: Target C; assay: HiBiT protein abundance assay, Target C; type: cell-based, human; conditions: Homo sapiens, K562, 24 h, Table 13A, modified K562 cells
Readout Name: IC50

- Compound: "CN(c1ncc(-c2ccc(-n3ccnn3)c3[nH]ncc23)nn1)[C@@H]1C[C@H]2CCC[C@@H](C1)N2 [Compound 576]"
  Target Or System: "Target C"
  Reported: "100 to 1000 nM"
- Compound: "c1n[nH]cc1-c1ccc(-c2ccc(N3CCCC4(CNC4)C3)nn2)c2[nH]ncc12 [Compound 251]"
  Target Or System: "Target C"
  Reported: "> 10000 nM"
- Compound: "[2H]C([2H])([2H])N(c1ccc(-c2ccc(-c3cn[nH]c3)c3ncsc23)nn1)[C@@H]1C[C@H]2CC[C@@H](C1)N2 [Compound 210]"
  Target Or System: "Target C"
  Reported: "< 100 nM"
- Compound: "C[C@@H]1C[C@H](N(C)c2ccc(-c3ccc(-c4cn[nH]c4)c4c3NC(=O)C4)nn2)CCN1 [Compound 121]"
  Target Or System: "Target C"
  Reported: "> 10000 nM"
- Compound: "COc1cc(-c2ccc(-c3ccc(O[C@@H]4C[C@H]5CC[C@@H](C4)N5)nn3)c3scnc23)cnn1 [Compound 362]"
  Target Or System: "Target C"
  Reported: "< 100 nM"

query: Reported IC50, compound c1n[nH]cc1-c1ccc(-c2ccc(N3CCC(NC4CC4)C3)nn2)c2[nH]ncc12 (centres unmarked) [Compound 306] : ____
result: > 10000 nM

query: Reported IC50, compound CC(C)(C)[C@@H]1CN(c2ncc(-c3ccc(-n4cccn4)c4[nH]ncc34)nn2)CCN1 [Compound 582] : ____
result: 1000 to 10000 nM

query: Reported IC50, compound CN(c1ccc(-c2ccc(-c3cnn(C)c3)c3cn[nH]c23)nn1)C1CC(C)(C)NC(C)(C)C1 [Compound 243] : ____
result: > 10000 nM

query: Reported IC50, compound c1n[nH]cc1-c1ccc(-c2ccc(N3CCC4(CCCNC4)C3)nn2)c2[nH]ncc12 (centres unmarked) [Compound 252] : ____
result: > 10000 nM
